Assay Procedure: chemical genetic growth profiling, strain panel (AID 1159580);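 also: tested at 20 µM; growth read once vehicle control cultures reached saturation at 30 °C; 1 = growth at the plate median or of vehicle wells; lower values mean less growth of the strain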
Condition Notes: S. cerevisiae deletion strains, growth OD, locus YHR079C, strain IRE1, hits give low values
Out of some 5,500 compounds screened, about 2,000 (36%) were called active. Not shown: some 18% with an inconclusive outcome. This is one part of the list. Where a SMILES comes first, the peptide text is derived from it.
Observed Property: normalized growth
Respond using a number only.

Before answering, review these 2 worked examples.
Cc1nnc2n1N=C(c1ccc(CC(C)C)cc1)C(C)S2 (stereo not drawn) | 1.05
COC(=O)[C@H](Cc1ccccc1)NC(=O)[C@@H](N)CC(=O)O (H-Asp-Phe-OMe) | 1.02

Please look at the following compound next.
# lookup: normalized growth of O=C1C=C2C(=CCOC2O)O1 (stereo not drawn)
0.84

---

Assay Procedure: chemical genetic growth profiling, strain panel (AID 1159580);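 also: tested at 20 µM; growth read once vehicle control cultures reached saturation at 30 °C; 1 = growth at the plate median or of vehicle wells; lower values mean less growth of the strain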
Condition Notes: S. cerevisiae deletion strains, growth OD, locus YJL164C, strain tpk1
Out of some 5,500 compounds screened, about 2,000 (36%) were called active. Another 18% or so got no clear call; they are omitted. Rule as the data show it: active = normalized growth mostly below about 0.91 (no sharp cut-off); inconclusive = no clear call, values can overlap the other calls; inactive = mostly above about 0.92. This is one part of the list.
Reply using exactly one outcome from Y for active, N for inactive

Use the examples below as a reference point.
C[C@]12CCC3c4ccc(OS(=O)(=O)O)cc4CCC3C1CC[C@H]2O (stereo not given in full) | N
C[C@@H]1CC[C@@]2(NC1)O[C@H]1C[C@H]3C4CC=C5C[C@@H](O)CC[C@]5(C)C4CC[C@]3(C)C1[C@@H]2C (stereo not given in full) | Y
O=c1ccc2c(O)c3ccoc3cc2o1 | N
CCCCCc1c2c(cc(O)c1C(=O)O)OC(=O)c1c(cc(OC)cc1C(=O)CCCC)O2 | N
CC1CC[C@@]2(OC1)O[C@H]1CC3C4CC[C@@H]5C[C@@H](O)CC[C@]5(C)C4CC[C@]3(C)[C@H]1[C@@H]2C (stereo not given in full) | N

Answer briefly: the call reported for COc1cc2occc2c2oc(=O)ccc12 in this assay.
N

# outcome recorded in this test, key = C[C@]12C=CC(=O)C=C1CCC1C2[C@@H](O)C[C@@]2(C)C1CC[C@]2(O)C(=O)COP(=O)(O)O (stereo not given in full)
N

Field: outcome | Entry: C[C@@H]1CC[C@@]2(OC1)O[C@H]1CC3C4CC[C@H]5C[C@@H](O)CC[C@]5(C)C4CC[C@]3(C)[C@H]1[C@@H]2C (stereo not given in full)
N

Just curious, what result did C=C1CCC2(OC1)OC1CC3C4CC=C5CC(O)CC(O)C5(C)C4CCC3(C)C1C2C (stereo not given) get here?
Y

Fill in: this test's call for COc1ccc2c(c1)CCC1C2CCC2(C)C1C[C@@H](O)C2O (stereo not given in full) is ___
Y

---

Below is a list of entries, each paired with its recorded normalized growth value.
Assay Procedure: chemical genetic growth profiling, strain panel (AID 1159580);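 also: tested at 20 µM; growth read once vehicle control cultures reached saturation at 30 °C; 1 = growth at the plate median or of vehicle wells; lower values mean less growth of the strain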
Condition Notes: S. cerevisiae deletion strains, growth OD, locus YNL322C, strain KRE1 (second series), hits give low values
Out of some 5,500 compounds screened, about 2,000 (36%) were called active. Another 18% or so got no clear call; they are omitted. Some of the results follow.

The examples below pair each entry with its known result.
C=CC1C2=CCOC(=O)C2=COC1OC1OC(CO)C(O)C(O)C1O (centres undefined) | 1.02 (inactive)
CC(=O)O[C@]1(C(C)=O)CCC2C3C=C(Cl)C4=CC(=O)[C@@H]5C[C@@H]5[C@]4(C)C3CC[C@@]21C (some centres undefined) | 1.01 (inactive)
COc1ccc(Cl)cc1C(=O)NCCc1ccc(S(=O)(=O)NC(=O)NC2CCCCC2)cc1 | 0.999 (inactive)

Let us move to another entry and its normalized growth.
So what's the measured normalized growth for this one? CN[C@@H]1C(O)[C@@H](O[C@@H]2[C@@H](O)[C@H](O[C@H]3OC(CN)=CC[C@H]3N)[C@@H](N)C[C@H]2N)OC[C@]1(C)O (some centres undefined)
0.996 (inactive)
